Tested on: MALME-3M melanoma
Assay: NCI tumour cell line growth inhibition, 48 h
# TGI listing for each entry below
All answers are understood in µM, so give the number only.

Some molecules with known TGI results, for comparison:
Identify the reported TGI for the following entry. O=C(Nc1ccc2c(c1)OCO2)C(=O)c1c[nH]c2cc(F)ccc12
8.61

Annotate the molecule CN(C)Cc1cc(N=Nc2ccc(Cl)cc2)ccc1O with its measured TGI.
27.2

Provide only the value of recorded TGI for O=C(Nc1nc(-c2ccc(Cl)cc2)nc2c1sc(=S)n2-c1ccccc1)C(F)(F)F
7.08

Now examine the next entry.
Indicate the recorded TGI value for this molecule: COC(=O)C1=C(C(=O)OC)C2OC1c1cc3ccccc3cc12
6

---

Tested on: NCI-H460 lung
Assay: NCI tumour cell line growth inhibition, 48 h
Form field: TGI (one value per entry).

Under NCI-H460 lung: report TGI of Cc1nc(Nc2ccccc2)sc1C(=O)CC(=O)C(=O)NC12CC3CC(CC(C3)C1)C2 .
> 100 µM

Please report TGI with NCI-H460 lung for item CN(C)CCC1(C2=CCCC2)CC/C(=C\c2ccccc2Cl)C1=O (stereo unspecified) .
31 µM

Param request: TGI | system NCI-H460 lung | item N#Cc1cc(NC(=O)c2ccccc2)c(=O)n2c1[nH]c1ccccc12
> 100 µM

Fetch value of TGI on NCI-H460 lung for COc1ccc(-c2nc(-c3cnccn3)n(COCCO)n2)cc1 .
> 100 µM

Recall the reported TGI of CC1=CC(C)(C)Nc2ccc(CSc3ccccc3)cc21 on NCI-H460 lung and write it down.
67.4 µM

Output reported TGI of the molecule CC(C)(C)NC(=O)C12C3C4C1C1C2C3C41C(=O)NC(C)(C)C (stereo unspecified) on NCI-H460 lung.
> 100 µM

Report value only: TGI, NCI-H460 lung, O=C(Nn1cnn2c(=O)c3ccccc3nc2c1=O)c1ccccc1
> 100 µM

State the measured TGI (NCI-H460 lung) of CC1CCc2c(c(CC3CC(=O)NC(=O)C3)nn2-c2ccccc2)C1 (stereo unspecified)
> 100 µM

Further cases:
Fill in TGI for COc1cc2ncn(-c3cc(OCc4ccccc4C(F)(F)F)c(C(C)=O)s3)c2cc1OC tested with NCI-H460 lung.
> 25 µM

Report TGI from NCI-H460 lung testing of CC(C)(C)NC/C(=C\c1ccccc1)C(=O)c1ccccc1
4.57 µM

Give measured TGI for CCCCCCCCCc1c(O)c(O)c(CCCCCCCCC)c(CCCCCCCCC)c1CCCCCCCCC (NCI-H460 lung).
> 100 µM

---

// values below are reported TGI
Test system: SNB-19 CNS
Assay: NCI tumour cell line growth inhibition, 48 h

Some entries whose results are on file:
Recall and state the measured TGI for O=S(=O)(Nc1ccc2ccccc2c1)c1ccc(-c2cnc(C3CC3)o2)cc1 .
> 100 µM

Complete the entry with TGI for Cc1cc(C)n(C(=O)CSc2nnc(SCC(=O)n3nc(C)cc3C)s2)n1
> 100 µM

Please supply the value of reported TGI for the item CCOC(=O)NC(=S)c1ccc(O)c2ccccc12
> 100 µM

Dear colleague, please send me the reported TGI for O=C(CN(c1ccc(S(=O)(=O)O)cc1)c1ccc(S(=O)(=O)O)cc1)Nn1cnc2ccc(S(=O)(=O)N(c3ccc(S(=O)(=O)O)cc3)c3ccc(S(=O)(=O)O)cc3)cc2c1=O when you can.
> 100 µM

State its TGI: CN(C)c1ccc(C2ON=C(c3ccccc3)N2C23CC4CC(CC(C4)C2)C3)cc1 (stereo unspecified)
> 10 µM

Further cases:
Dear colleague, please send me the reported TGI for COc1ccc(/C=C2/CCS(=O)(=O)c3ccc(C)cc3C2=O)cc1OC when you can.
33.3 µM

Note down TGI recorded for Oc1ccc(-c2cn3cc(C(F)(F)F)ccc3n2)cc1
> 100 µM

Give the value of TGI reported for the following: CC1=C2[C@H](c3ccccc3)C3C=CC2(c2ccccc23)N(C(=O)C(c2ccccc2)c2ccccc2)C1=O (stereo partly specified)
> 100 µM

---

Tested on: A498 renal
Experiment: NCI tumour cell line growth inhibition, 48 h
metric-name: TGI

Please indicate recorded TGI of [O-][n+]1c(-c2ccccc2)c2nc3ccccc3nc2c2ccccc21 measured with A498 renal.
> 100 µM

Provide TGI, recorded with A498 renal, of COC(=O)c1c2c(cc3c1CC1(Cc4cc5c(cc4C1)CCC5)C3)CCC2
> 100 µM

Give TGI; test system A498 renal; compound O=C1C(Cl)=C(N2CCN(c3ccccn3)CC2)C(=O)c2ncccc21
23.8 µM

Please indicate recorded TGI of O=C1CN(c2ccc(Cl)cc2)C(=O)CN1NCNN1CC(=O)N(c2ccc(Cl)cc2)CC1=O measured with A498 renal.
> 100 µM

Please tell me the measured TGI for COC(=O)c1cc(C)n(CN(Cc2ccccc2)Cn2nc(C(=O)OC)cc2C)n1 ; system: A498 renal.
> 100 µM

---

System: SK-MEL-5 melanoma
Assay: NCI tumour cell line growth inhibition, 48 h
The entries below are paired with their reported TGI.

Assign TGI to the following record: O=C1CN(c2ccc(Cl)cc2)C(=O)CN1NCNN1CC(=O)N(c2ccc(Cl)cc2)CC1=O
> 100 µM

Quote TGI reported for O=C(O)Cn1c2c(c3c(O)cccc31)C(=O)c1ccccc1-2 please.
> 100 µM

Retrieve TGI measured for CCN(CC)C(=S)SS(=O)(=O)c1ccccc1[N+](=O)[O-] and print it.
24.8 µM

Now take the following compound into account.
Kindly indicate its recorded TGI. Item: COc1cc2ncn(-c3cc(OCc4ccccc4C(F)(F)F)c(C(C)=O)s3)c2cc1OC
> 25 µM

---

System: M14 melanoma
Experiment: NCI tumour cell line growth inhibition, 48 h
metric-name: TGI

Check out these entries, answers already filled in.
Look up and report measured TGI (M14 melanoma) for the following compound: CN1C(=O)C23CCCCC2CC1(c1ccccc1)S3 (centres undefined)
> 100 µM

Return reported TGI for target or system M14 melanoma, item C=C1C(=O)OC2C1C(OC(=O)/C(C)=C\C)CC1(CO1)C1C(O)C=C(C)C21O (centres undefined) .
7.58 µM

Tell me its TGI on M14 melanoma: CC1OC(O[C@H]2CC[C@]3(C=O)[C@H]4CC[C@]5(C)[C@H](C6=CC(=O)OC6)CC[C@]5(O)[C@@H]4C=C[C@]3(O)C2)CC(O)C1O (some centres undefined)
0.761 µM

Quote TGI with test system M14 melanoma for CCOC(=O)c1csc(NC(=O)COc2cccc(/C=C3\CSc4ccccc4C3=O)c2)n1
4.18 µM

GET TGI where system = M14 melanoma and item = COC(=O)C1=C(O)[C@H](C(=O)OC)[C@]2(O)[C@@H](C(=O)OC)[C@H]1C[C@@H](c1ccc(OC(=O)/C=C/c3ccco3)cc1)[C@@H]2C(=O)OC
23.2 µM

Next:
State TGI on M14 melanoma. Entry: CC(=O)N=C1N(/C=C2\C(=O)Oc3ccccc3C2=O)C(=O)/C(=C/c2ccccc2Cl)N1C
> 100 µM

Quote M14 melanoma TGI for entry Cn1c(=O)oc2cc(Br)ccc21 .
> 100 µM

Give M14 melanoma TGI for the following compound: O=C1[C@H](Cl)[C@H]2c3cc4ccccc4nc3Oc3ccccc3N12
> 100 µM

Specify the recorded TGI for N#Cc1c(N)c(C#N)c2c(c1-c1ccc(Cl)cc1)COc1ccccc1-2 , system: M14 melanoma.
> 100 µM

---

Test system: MALME-3M melanoma
Assay: NCI tumour cell line growth inhibition, 48 h; in the data active = GI50 below about 0.43 µM; inactive = the rest
Parameter call: string, one of True for active, False for inactive

Known results for compounds:
Status in this test for COc1ccc2c(c1)C(=O)c1c-2n(CCCN)c(=O)c2cc(OC)c(OC)cc12 ?
False

Record lookup: outcome of this test for CCOC(=O)c1csc(NC(=O)COc2cccc(/C=C3\CSc4ccccc4C3=O)c2)n1 ?
True

What classification did CSc1ccc(C2=NN(C(C)=O)C(c3ccc(F)cc3)C2)cc1 (configuration not stated) end up with in this test?
False

How was O=C(NN1C(=O)CSC12CCCC2)C(O)c1ccccc1 (configuration not stated) classified in this test?
False

New cases:
Outcome logged for CC[C@@H](C)Nc1cc(C(=O)NC2CC3CCC(C2)N3c2ccc(C(=O)C3CC3)cn2)c(C)cc1C(N)=O (some centres not stated) in this assay:
True

Any idea what this test logged for O=C(Nc1cccc(Cl)c1)c1cc(N=Nc2ccc([N+](=O)[O-])cc2Cl)ccc1O ?
False

Write down the call the test reported for this compound. Item: CC(C)CCC(=O)[C@@H](C)[C@H]1[C@@H](OC2OCC(O)C(O)C2NS(C)(=O)=O)C[C@H]2[C@@H]3CC=C4C[C@@H](O)CC[C@]4(C)[C@H]3CC[C@]12C (some centres not stated)
False

---

Tested on: A549 NSCLC
Assay: NCI tumour cell line growth inhibition, 48 h
metric-name: TGI

Return reported TGI. Input compound: CCN(CC)CCNc1ccc2nnn3c4ccccc4c(=O)c1c23
13.2 µM

New cases:
Provide one value: measured TGI of CC(=O)N=C1N(/C=C2\C(=O)Oc3ccccc3C2=O)C(=O)/C(=C/c2ccccc2Cl)N1C
> 100 µM

Write down TGI measured for item C=C1C(=O)OC2C1C(OC(=O)/C(C)=C\C)CC1(CO1)C1C(O)C=C(C)C21O (stereo unspecified)
40.6 µM

Report TGI for O=C(O)Cn1c2c(c3c(O)cccc31)C(=O)c1ccccc1-2
> 100 µM

Determine its reported TGI: COc1ccc(-c2nc(-c3cnccn3)n(COCCO)n2)cc1
> 100 µM

Give the value of TGI reported for the following: COc1ccc(CNC(=O)[C@H](Cc2ccc(O)cn2)NC(C)=O)cc1
> 100 µM

Look up TGI of Nc1c(N2CCCCC2)c(=O)nc2[nH]/c(=C\c3ccccc3)c(=O)n12 and report it.
> 100 µM

# return recorded TGI for input CC(=O)NC(CCCCN(Cc1ccccc1)C(=O)N(CCCl)N=O)C(=O)NCc1ccccc1 (stereo unspecified)
49.5 µM

Give the reported value of TGI for this record: COC(=O)C1=C(C(=O)OC)C2OC1c1cc3ccccc3cc12
37 µM

Look up TGI of CCC[CH2][Sn]([CH2]CCC)([O]C(=O)c1cc(F)cc(F)c1)[O][Sn]([CH2]CCC)([CH2]CCC)[O]C(=O)c1cc(F)cc(F)c1 and report it.
21.8 µM

Give the reported value of TGI for this record: CN(C)c1ccc(C2ON=C(c3ccccc3)N2C23CC4CC(CC(C4)C2)C3)cc1 (stereo unspecified)
> 10 µM

Quickly give me recorded TGI for Cc1nnc(-c2ccc(C)c(-c3ccc(C(=O)NCc4ccc(Cl)cc4)cc3)c2)o1
> 25 µM

Read the entry C=C1CC(CN2CCC(=O)NC2=O)(c2ccccc2)OC1=O (stereo unspecified) and write its reported TGI.
33 µM
